- Target System: T1, SF3A1-UBL WT (human, UniProt Q15459 704-793)
- T1 sequence: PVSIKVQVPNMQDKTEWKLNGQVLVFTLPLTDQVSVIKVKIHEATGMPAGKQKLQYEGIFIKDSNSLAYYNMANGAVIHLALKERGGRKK
- Test Name: SPR
pKd: −log10 of the molar value.

Binder: GGGGACUGCGUUCGCGCUUUCCCC (structured_RNA) [Biotin-U1-SL4-WT]
pKd: 6.48

The measurements presented in this section are drawn from paper PMC8833184.
